Taken from PubChem BioAssay (NCATS).

assay comment: qHTS for Inhibitors of the Aldehyde Dehydrogenase Family (ALDH1A2, ALDH1A3, ALDH2, ALDH3A1) (AID 2061307); further: nearly all actives have a fitted effect of over 50% in size; on Potency: test system not described further here; potency means the concentration at half of the fitted maximal effect
assay conditions: ALDH inhibition qHTS; series mostly up to 50.3 µM
Results filed as inconclusive are left out. Calls of active or inactive are those of the source. The call rests on the fitted dose curve; in most records, active means well fitted inhibition curve with a large enough effect; inconclusive means small, poorly fitted or top-dose-only effect; inactive means no such curve, though single readings can be large or run the other way.
value kind: Potency

Answered examples (5):
{"compound": "CC(NC(=O)c1c(O)nc2ccccn2c1=O)c1ccccc1 (configuration not stated)", "Potency": "inactive"}
{"compound": "CCOc1ccc(-c2nc3scc(-c4ccc(OC)cc4)c3c(=O)[nH]2)cc1OC", "Potency": "inactive"}
{"compound": "O=C(N/N=C/c1ccc(Br)o1)c1cccc(F)c1", "Potency": "6.31 µM (active)"}
{"compound": "COc1ccc(C(=O)O/N=C(\\N)c2ccccn2)cc1", "Potency": "0.538 µM (active)"}
{"compound": "CC(=O)Nc1sc2c(c1-c1ccco1)CCNC2", "Potency": "inactive"}

Quick one: Potency for `O=C1Cc2cc(S(=O)(=O)N3CCN(c4ccc(F)cc4)CC3)ccc2N1` ?
inactive

Quick one: Potency for COc1cccc(CN2C(=O)c3ccccc3NC2c2ccc(OC)c(COc3ccc(NC(C)=O)cc3)c2)c1 (configuration not stated) ?
3.55 µM (active)

Quick one: Potency for `Cn1c(C(=O)O)cnc1-n1cc(Cc2ccc(S(N)(=O)=O)cc2)c(-c2ccccc2)n1` ?
inactive

###

assay comment: BET inhibitor-based combinations targeting novel dependencies in MECOM-rearranged (r) AML: OCI-AML3 cell line (AID 2202232); further: nearly all actives have a fitted effect of over 35% in size; further: potency means the concentration at half of the fitted maximal effect
assay conditions: CellTiter-Glo luminescence, 48 h; OCI-AML3 viability; series mostly up to 46 µM
Protocol: Ecotropic viral insertion site 1 (EVI1) is located on chromosome 3q26.2 as part of the MECOM (MDS and EVI1 complex) locus. […] A collection of 2480 mechanistically annotated dugs (MIPE v5.0) was used to screen four 3q26.2 rearranged AML cell lines and three non-3q26.2 rearranged AML cell lines. […] Cell viability was determined by luminescence based, Cell Titer Glo assay (Promega). […] Luminescence readings were taken using a Viewlux (PerkinElmer) with a 2 s exposure time per plate. […]
Records with an inconclusive call do not appear. The source made the active and inactive calls. Calls come from the whole dose curve; as a rule, active = well fitted inhibition curve with a large enough effect; inconclusive = small, poorly fitted or top-dose-only effect; inactive = no such curve, though single readings can be large or run the other way.
value kind: Potency

{"compound": "Cc1ccc(NC(=O)Nc2nnc(Sc3ncnc4cc(OCCCN5CCOCC5)ccc34)s2)cc1", "value kind": "Potency", "reading": "14.8 µM (active)"}
{"compound": "Cn1c(NC[C@@H](N)Cc2ccccc2)nc(-c2ccncc2)c(-c2ccc3ccccc3c2)c1=O", "value kind": "Potency", "reading": "20.9 µM (active)"}
{"compound": "Cc1[nH]nc2ncc(C(=O)N3CCC[C@H]3c3ccc(Cl)cc3)cc12", "value kind": "Potency", "reading": "inactive"}
{"compound": "CC1(C)CC[C@]2(C(=O)O)CC[C@]3(C)C(=CC[C@@H]4[C@@]5(C)C[C@@H](O)[C@H](O)C(C)(C)[C@@H]5CC[C@]43C)[C@@H]2C1", "value kind": "Potency", "reading": "inactive"}
{"compound": "CC[C@H]1OC(=O)[C@H](C)[C@@H](O[C@H]2C[C@@](C)(OC)[C@@H](O)[C@H](C)O2)[C@H](C)[C@@H](O[C@@H]2O[C@H](C)C[C@H](N(C)C)[C@H]2O)[C@](C)(O)C[C@@H](C)C(=O)[C@H](C)[C@@H](O)[C@]1(C)O", "value kind": "Potency", "reading": "inactive"}
{"compound": "CN1CCN(C2CCC(n3cc(-c4ccc(Oc5ccccc5)cc4)c4c(N)ncnc43)CC2)CC1 (stereo unspecified)", "value kind": "Potency", "reading": "13.2 µM (active)"}
{"compound": "COc1ccc(S(=O)(=O)N(CCO)c2ccccc2CN(C)C/C=C/c2ccc(Cl)cc2)cc1", "value kind": "Potency", "reading": "14.8 µM (active)"}
{"compound": "C=C1C[C@@H]2CC[C@@]34C[C@H]5O[C@H]6[C@@H](O3)[C@H]3O[C@H](CC[C@@H]3O[C@H]6[C@H]5O4)CC(=O)C[C@@H]3[C@@H](OC)[C@@H](C[C@H](O)CN)O[C@H]3C[C@H]3O[C@@H](CC[C@@H]1O2)C[C@@H](C)C3=C", "value kind": "Potency", "reading": "0.0015 µM (active)"}
{"compound": "CCCNC(=O)[C@H]1O[C@@H]1C(=O)N[C@H](C(=O)N1CCC[C@H]1C(=O)OC)C(C)CC (stereo partly specified)", "value kind": "Potency", "reading": "2.09 µM (active)"}
{"compound": "Cc1c(C(=O)Nc2ccc(Oc3ccnc4[nH]cc(-c5ccccc5)c34)c(F)c2)c(=O)n(-c2ccc(F)cc2)n1C", "value kind": "Potency", "reading": "20.9 µM (active)"}

Quick one: Potency for `Clc1ccc(-c2nc3sccn3c2/C=N/OCc2ccc(Cl)c(Cl)c2)cc1` ?
inactive

Quick one: Potency for `CN(C)CCCN=c1c2ccccc2n(C)c2[nH]c(=O)n(C)c(=O)c12` ?
18.6 µM (active)

Quick one: Potency for `CC(C)(C)OC(=O)Nc1ccc(-c2cc(C(=O)NCCCCCCC(=O)NO)no2)cc1` ?
2.63 µM (active)

Quick one: Potency for `C[C@@H](O[C@H]1OCCN(Cc2n[nH]c(=O)[nH]2)[C@@H]1c1ccc(F)cc1)c1cc(C(F)(F)F)cc(C(F)(F)F)c1` ?
18.6 µM (active)

Quick one: Potency for `C[C@@]12O[C@@H](C[C@]1(O)CO)n1c3ccccc3c3c4c(c5c6ccccc6n2c5c31)CNC4=O` ?
0.417 µM (active)

Quick one: Potency for C=CCN1C[C@H](C(=O)N(CCCN(C)C)C(=O)NCC)CC2c3cccc4[nH]cc(c34)C[C@H]21 (stereo partly specified) ?
10.5 µM (active)

###

tested system: Retinal dehydrogenase 2 (Homo sapiens)
assay comment: qHTS for Inhibitors of the Aldehyde Dehydrogenase Family (ALDH1A2) Confirmation screens (AID 2061314); further: nearly all actives have a fitted effect of over 65% in size; further: potency means the concentration at half of the fitted maximal effect
assay conditions: ALDH1A2 enzyme inhibition qHTS confirmation; series mostly up to 45.9 µM
Inconclusive results are not listed. Calls of active or inactive are those of the source. The call rests on the fitted dose curve; in most records, active means well fitted inhibition curve with a large enough effect; inconclusive means small, poorly fitted or top-dose-only effect; inactive means no such curve, though single readings can be large or run the other way.
value kind: Potency

{"compound": "COc1cccc(-c2cccc(C(=O)N3CCN([S+](=O)([O-])c4ccccc4)CC3)c2)c1", "Potency": "inactive"}
{"compound": "c1ccc(CNc2ccc(N3CCOCC3)cc2)cc1", "Potency": "12.7 µM (active)"}
{"compound": "c1nc(NCC2CCCOC2)c2cc(-c3ccc4c(c3)OCO4)ccc2n1 (stereo not given)", "Potency": "11.3 µM (active)"}
{"compound": "O=C(Nc1nc(-c2ccccc2)cs1)c1ccncc1NS(=O)(=O)c1ccc(Cl)cc1", "Potency": "10.1 µM (active)"}
{"compound": "COc1ccc(NC(=O)CCc2c(C)nc3c(c2C)c(=O)n(C)c(=O)n3C)cc1OC", "Potency": "inactive"}
{"compound": "CC[C@H]1CN(C(=O)Nc2cccc(C(F)(F)F)c2)CC[C@H]1CC(=O)N(C)CCC#N", "Potency": "inactive"}

Quick one: Potency for `CN(CC(=O)Nc1ccc(OC(F)(F)F)cc1)S(=O)(=O)c1ccc2c(c1)CCC(=O)N2` ?
inactive

Quick one: Potency for `O=C(Cc1ccccc1)Nc1sc2c(c1C(=O)Nc1ccc(Cl)cc1)CCCC2` ?
4 µM (active)

Quick one: Potency for `COc1ccc(S(=O)(=O)N2C[C@@H](Oc3ccccc3)C[C@@H]2C(=O)N2CCOCC2)cc1` ?
inactive

Quick one: Potency for `N#Cc1nc(Nc2ccc3ccccc3c2)nc(NC2CCCC2)n1` ?
22.5 µM (active)

###

assay comment: BET inhibitor-based combinations targeting novel dependencies in MECOM-rearranged (r) AML: AML-194 cell line (AID 2202237; further: nearly all actives have a fitted effect of over 40% in size)
assay conditions: AML-194 (MECOM-r AML) viability, CellTiter-Glo, 48 h; series mostly up to 46 µM
Results filed as inconclusive are left out. The source made the active and inactive calls. Calls follow the shape of the dose curve; as a rule, active = well fitted inhibition curve with a large enough effect; inconclusive = small, poorly fitted or top-dose-only effect; inactive = flat fitted curve, though single readings scatter.
# valid calls are active, inactive; nothing else

{"mol smiles": "CC1=C(/C=C/C(C)=C/C=C/C(C)=C/C=C/C=C(C)/C=C/C=C(C)/C=C/C2=C(C)CCCC2(C)C)C(C)(C)CCC1", "category": "inactive"}
{"mol smiles": "Cc1nc2ccc(CN(C)c3ccc(C(=O)N[C@@H](CCC(=O)O)C(=O)O)s3)cc2c(=O)[nH]1", "category": "active"}
{"mol smiles": "NC(CO)(CO)CCc1ccc(Sc2cccc(OCc3ccccc3)c2)cc1Cl", "category": "active"}
{"mol smiles": "CC[C@H]1OC(=O)[C@H](C)[C@@H](O[C@H]2C[C@@](C)(OC)[C@@H](O)[C@H](C)O2)[C@H](C)[C@@H](O[C@@H]2O[C@H](C)C[C@H](N(C)C)[C@H]2O)[C@](C)(O)C[C@@H](C)CN(C)[C@H](C)[C@@H](O)[C@]1(C)O", "category": "inactive"}
{"mol smiles": "N#C/C(=C(/N)Sc1ccc(N)cc1)c1ccccc1C(F)(F)F", "category": "active"}

I would be grateful if you could indicate the recorded call for `O=C(C[C@@H]1C/C=C\CCC(=O)O[C@H](c2ccccc2)CNC1=O)NCc1ccc(Cl)cc1` .
inactive

I would be grateful if you could indicate the recorded call for `O=c1oc2cc(O)ccc2s1` .
inactive

I would be grateful if you could indicate the recorded call for `CC(C)(C)c1[nH]cnc1/C=c1\[nH]c(=O)/c(=C/c2ccccc2)[nH]c1=O` .
active
